target_under_test: beta-catenin (human)
Sequence (B6V8E6 146-665 limits assumed): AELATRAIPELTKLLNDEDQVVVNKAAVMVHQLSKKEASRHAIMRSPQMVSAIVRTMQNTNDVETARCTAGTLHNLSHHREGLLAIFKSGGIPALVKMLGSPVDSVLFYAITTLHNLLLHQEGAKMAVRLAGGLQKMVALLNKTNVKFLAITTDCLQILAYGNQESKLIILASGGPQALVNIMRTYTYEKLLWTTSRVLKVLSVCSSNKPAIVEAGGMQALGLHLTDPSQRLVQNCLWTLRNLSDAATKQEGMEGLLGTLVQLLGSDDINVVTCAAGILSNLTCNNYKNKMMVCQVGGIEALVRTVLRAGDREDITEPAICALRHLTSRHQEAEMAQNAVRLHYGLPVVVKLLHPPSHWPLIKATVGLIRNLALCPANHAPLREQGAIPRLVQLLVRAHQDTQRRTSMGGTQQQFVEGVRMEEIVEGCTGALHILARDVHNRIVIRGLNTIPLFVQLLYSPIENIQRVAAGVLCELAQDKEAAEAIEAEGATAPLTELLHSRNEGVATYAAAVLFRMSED
method_notes: fluorescence polarization
*1 amine or outer side, *2 acyl side, *3 side chain or, on linkers, in order; H or OH if unused. Bridges are numbered along the chain shown (N, C = ends). Primed or numbered codes have the meaning given here. [ ]: non-standard residue; d: D form. PyrS2(6) = (S)-3-amino-1-((pent-4-en-1-yloxy)carbonyl)pyrrolidine-3-carboxylic acid, stapled with another olefin-containing amino acid residue through the olefin group, O=C(OCCCC=[*:3])N1CC[C@@](N[*:1])(C(=O)[*:2])C1; B5(4) = 2-amino-2-(pent-4-en-1-yl)hept-6-enoic acid, stapled through each of its two olefin groups with other olefin-containing amino acid residues, O=C(C(CCCC=[*:3])(CCCC=[*:4])N[*:1])[*:2]; Phe(3-COOH) = N[C@@H](Cc1cccc(C(=O)O)c1)C(=O)O; Bta = N[C@@H](Cc1csc2ccccc12)C(=O)O; αAllylPro = C=CC[C@@]1(C(=O)O)CCCN1; tBuAla = CC(C)(C)C[C@H](N)C(=O)O; 3Thi = N[C@@H](Cc1ccsc1)C(=O)O; GlnR = not defined here
assay_readout: IC50

-- ask Need IC50 of Ac-[αAllylPro]N[tBuAla][B5(4)]D[Phe(3-COOH)]AAFK[PyrS2(6)][3Thi][Bta][GlnR]A-NH2 (staple 1-4 (inferred); bridge 10-14; not fully specified (residue 10, bridges); printed as Ac-PL3-Asn-Npg-B5-Asp-3COOHF-Ala-Ala-Phe-Lys*3-PyrS2-3Thi-BztA-GlnR*3-Ala-NH2; reading uncertain) [I-80] , thanks.
-- reply < 50 nM
